endpoint: melting point

See these solved cases before continuing.
CCc1cc(C(=O)N2CCCCCC2C)nc2cc(-c3ccc4c(c3)CC(=O)N4C)nn12 (stereo not shown) : 225 to 230 °C
C[C@@H]1CCCCCN1C(=O)c1cc(C2CCC2)n2nc(-c3cccc(/C=C/C(=O)O)c3F)cc2n1 : 231.54 °C
CCc1cc(C(=O)N2CCCCCC2C)nc2c(F)c(-c3ccc(NS(C)(=O)=O)cc3F)nn12 (stereo not shown) : 210 to 212 °C

With those in mind, consider the next compound.
Problem: # input compound: CC1c2ccsc2CCN1C(=O)c1cc(C2CC2)n2nc(-c3ccc(N4CC[C@H](C(=O)O)C4)cc3F)cc2n1 (single isomer, unassigned) ; wanted: its melting point
Solution: 231.1 °C

###

endpoint: melting point

CCc1cc(C(=O)N2CCCCCC2C)nc2cc(-c3ccc(NC(=O)CCC(=O)NC)cc3)nn12 (stereo not shown) [Compound E29] : 204 to 205 °C
CCc1cc(C(=O)N2CCCCCCC2C)nc2cc(-c3ccc(NC(=O)NCC4CCCO4)cc3F)nn12 (stereo not shown) [Compound B3] : 195 to 200 °C
CCc1cc(C(=O)N2CCCCCC2C)nc2cc(-c3ccc(-c4nc(C)c(C(=O)O)s4)cc3F)nn12 (stereo not shown) [Compound F18] : 165 to 170 °C
CCc1cc(C(=O)N2CCCCCC2C)nc2cc(-c3ccc(C(=O)NC4CC4)cc3F)nn12 (stereo not shown) [Compound L1] : 196 °C
CCc1cc(C(=O)N2CCCCCC2C)nc2cc(-c3ccc(NC(=O)NCC4CCCO4)cc3)nn12 (stereo not shown) [Compound B5] : 205 °C
CCc1cc(C(=O)N2CCc3ccccc3C2C)nc2cc(-c3ccc(/C=C/C(=O)O)cc3F)nn12 (stereo not shown) [Compound M11] : 225 to 230 °C
CCc1cc(C(=O)N2CCCCCC2C)nc2cc(-c3ccc(-c4ccc(C(=O)O)cn4)cc3F)nn12 (stereo not shown) [Compound F14] : 245 to 250 °C
CCc1cc(C(=O)N2CCCCCC2C)nc2cc(-c3ccc(C(=O)O)cc3F)nn12 (stereo not shown) [Compound K2] : 210 °C
CCc1cc(C(=O)N2CCCCCC2C)nc2cc(-c3ccc(N(C)C)cc3F)nn12 (stereo not shown) [Compound A6] : 84 °C
C=CCC(=O)Nc1ccc(-c2cc3nc(C(=O)N4CCCCCC4C)cc(CC)n3n2)c(F)c1 (stereo not shown) [Compound E5] : 170 to 175 °C

Please examine the following record next.
Problem: Which value of melting point has been reported for CCc1cc(C(=O)N2CCc3sccc3C2C)nc2cc(-c3cccc(/C=C/C(=O)O)c3F)nn12 (racemic) [Compound M48] in the records?
Solution: 255.5 °C

###

Assay: Cytotoxicity in HeLa cells, ATP content measured with the ATPlite kit
Assay type: cell-based
Conditions: human, TOX HELA pCC50
endpoint: CC50 at 3 days

CCc1cc(C(=O)N2CCCCCC2C)nc2cc(-c3ccc4c(c3)ncn4C)nn12 (stereo not shown) : > 25.1 µM

Problem: What CC50 at 3 days value was documented for this compound, CCc1cc(C(=O)N2CC[C@@H]3CCCC[C@@H]3[C@H]2C)nc2cc(-c3ccc(/C=C/C(=O)O)cc3F)nn12 (racemic) ?
Solution: 46.8 µM

Problem: Look up CC50 at 3 days for this compound: CCc1cc(C(=O)N2CCCCCC2C)nc2cc(-c3ccc(NC(=O)CCC(=O)NC)cc3)nn12 (stereo not shown)
Solution: > 25.1 µM

Problem: Which CC50 at 3 days reading was recorded for the compound CCc1cc(C(=O)N2CCCCCC2C)nc2cc(-c3ccc4[nH]ccc4c3)nn12 (stereo not shown) ?
Solution: > 25.1 µM

Problem: For the compound shown here, CCc1cc(C(=O)N2CCCCCC2C)nc2cc(-c3ccc(/C=C/C(=O)O)cc3F)nn12 (stereo not shown) , give the reported CC50 at 3 days.
Solution: > 25.1 µM

Problem: If you can, please state the reported CC50 at 3 days value of C[C@@H]1CCCCCN1C(=O)c1cc(C2(C)CC2)n2nc(-c3cccc([C@H]4C[C@@H]4C(=O)O)c3F)cc2n1 (racemic) .
Solution: 89.1 µM

Problem: Please report the recorded CC50 at 3 days for CCc1cc(C(=O)N2CCCCCC2C)nc2cc(-c3ccc(S(=O)(=O)NC)cc3F)nn12 (stereo not shown) .
Solution: > 25.1 µM

Data origin: patent US11084826B2
